- measured.target: T1, ARHGEF11, O15085
- T1 sequence (O15085 42-136, limits assumed, looked up): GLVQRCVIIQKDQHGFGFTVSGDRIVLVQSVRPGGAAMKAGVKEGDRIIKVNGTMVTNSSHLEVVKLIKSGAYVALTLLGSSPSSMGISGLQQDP
- run.description: holdup assay
- Parameters: key: below the threshold = too weak to quantify, mostly under pKd 3.1 to 4
- measurement.context: plain residues with an end cap or a label only (N-terminal biotin on a linker: ttds)
metric: pKd
Respond numerically, and do not add a unit to the figure.

Query: Fill in: pKd of SSIDLWETAL [SLC15A5, A6NIM6] is ___
Response: 5.24

Query: What do you have for KLVIKTETTV [RASSF6, Q6ZTQ3] ?
Response: 3.91

Query: Also check GARVSKETPL [MAPK12, P53778]
Response: 3.48

Query: Continue with KQVVPFSSSV [GDA, Q9Y2T3]
Response: 3.56

Where do the numbers come from? From paper PMC9482650.
